target: DLL4 extracellular domain (R&D systems, catalog #1506-D4/CF) (UniProt Q9NR61 27-529, limits assumed); assay: cell-based or functional assay
Sequence (Q9NR61 27-529 limits assumed): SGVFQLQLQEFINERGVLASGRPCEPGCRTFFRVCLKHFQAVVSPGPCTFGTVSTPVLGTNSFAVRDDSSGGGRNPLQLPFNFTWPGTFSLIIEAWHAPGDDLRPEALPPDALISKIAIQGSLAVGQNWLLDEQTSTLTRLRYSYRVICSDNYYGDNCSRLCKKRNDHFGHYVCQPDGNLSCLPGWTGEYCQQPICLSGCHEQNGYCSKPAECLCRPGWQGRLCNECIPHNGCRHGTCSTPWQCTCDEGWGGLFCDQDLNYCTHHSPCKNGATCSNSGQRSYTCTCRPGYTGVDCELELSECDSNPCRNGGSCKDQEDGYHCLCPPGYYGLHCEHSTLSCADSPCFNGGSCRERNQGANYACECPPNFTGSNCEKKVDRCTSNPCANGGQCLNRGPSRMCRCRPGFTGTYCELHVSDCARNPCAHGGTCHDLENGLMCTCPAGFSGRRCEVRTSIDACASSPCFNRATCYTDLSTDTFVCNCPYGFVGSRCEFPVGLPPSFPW
Think of 70% as a floor: if % inhibition 1 µg/ml, N = 1 (HUVEC proliferation on coated DLL4) stands on it or above, it is 1; beneath it, -1.

binder	class label
17F3 (antibody, IgG2, V domains shown, Fully human; also used where no isotype is printed) VH: QVQLVQSGAEVKKPGASVKVSCKASGYTFTNYGISWVRQAPGQGLEWMGWINAYNGNTNYAQNLQGRVTMTTDTSTNTAYMELRSLRSDDTAVYYCARVAPAAFFDYWDQGTLVTVSS VL: SYELTQPPSVSVSPGQTASITCSGDKLGDKYVCWYQQKPGQSPVLVIYQDNKRPSGIPERFSGSNSGNTATLIISGTQAMDEADYYCQAWDSSTVFGGGTKLTVL	-1
4B3 (antibody, IgG4, V domains shown, Fully human; also used where no isotype is printed) VH: QVQLVQSGAEVRKSGASVKVSCKASGYSFTTYDINWVRQATGQGLEWMGWMNPNSGYTDYAQKFQGRVTLTRNMSIDTAYMELSSLRSEDTAVYYCARAYYYDSSAYYLFDYWGQGTLVTVSS VL: DIQMTQSPSSLSASVGDRVTITCRASQGISNYLAWFQQKPGKAPKSLIYAASSLQSGVPSKFSGSGSGTDFTLTISSLQPEDFATYFCQQYISYPLTFGGGTKVEI	-1
4B4 (antibody, IgG4, V domains shown, Fully human; used for IgG4 rows and where no isotype is printed; also called 4B4 IgG4; 4B4.1) VH: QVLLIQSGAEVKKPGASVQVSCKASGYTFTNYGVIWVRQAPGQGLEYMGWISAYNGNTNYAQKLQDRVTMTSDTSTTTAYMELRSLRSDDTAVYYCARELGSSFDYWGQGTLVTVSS VL: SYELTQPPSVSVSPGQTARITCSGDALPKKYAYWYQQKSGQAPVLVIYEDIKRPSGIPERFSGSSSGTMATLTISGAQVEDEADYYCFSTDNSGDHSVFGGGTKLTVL	1
1E4 (antibody, IgG2, V domains shown, Fully human; also used where no isotype is printed) VH: QVQLVESGGGVVQPGRSLRLSCAASGFTFSSYGMHWVRQAPGKGLEWVAVTWYDGSNKYYADSVKGRFTISRDNSKNTLYLQMNSLRAEDTAVYYCARENCSSTSCYYTVTTDYYGMDVWGQGTTVTVSS VL: EIVLTQSPGTLSLSPGERATLSCRASQRVSSSYLTWYQQKPGQAPRLLIYGASIRATGIPDRFSGSGSGTDFTLTITRLEPEDFAVYFCQQCYTSPITFGQGTRLDIK	1
12A1 (antibody, IgG4, V domains shown, Fully human; also used where no isotype is printed) VH: QVQLVQSGAEVKRPGASVKVSCKASGYTFTSYGITWVRQAPGQGLEYMGWISTYNGNTDYAQKFQGRVTMTADISTSTAYMELRSLRSDDTAVYYCARERGSYFDYWGQGTLVTVSS VL: SYELTQPPSVSVSPGQTARITCSGDTLPKKYAYWYQQKSGQAPVLVIYEDIKRPSGIPERFSGSSSGTMATLTISGAQVEDEADYYCFSTDSGGNHKFGGGTKLTVL	-1
